target: Delta-type opioid receptor (Homo sapiens, UniProt P41143); experiment: Inverse agonist activity at human cloned delta opioid receptor expressed in CHO cells assessed as […] [35S]GTP-gamma-S binding in presence of 1 uM GDP
Sequence (P41143 whole entry): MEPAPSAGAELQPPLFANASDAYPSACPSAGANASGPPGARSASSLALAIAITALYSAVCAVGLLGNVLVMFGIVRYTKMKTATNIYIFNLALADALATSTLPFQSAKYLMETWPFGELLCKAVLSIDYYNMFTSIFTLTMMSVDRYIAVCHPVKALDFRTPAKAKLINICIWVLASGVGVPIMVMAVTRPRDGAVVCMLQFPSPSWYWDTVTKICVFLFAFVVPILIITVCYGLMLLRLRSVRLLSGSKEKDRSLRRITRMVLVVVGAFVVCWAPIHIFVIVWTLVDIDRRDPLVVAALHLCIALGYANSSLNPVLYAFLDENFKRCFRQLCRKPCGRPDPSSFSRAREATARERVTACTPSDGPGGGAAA
Recorded IC50 by entry
assayMetric: IC50 (nM)

>>> measvalue("C[C@H]1CN(CCCc2ccccc2)[C@@H]2C[C@@H](NC(=O)C3(c4cccs4)CCCC3)C[C@@]1(c1cccc(O)c1)C2")
0.8
>>> measvalue("COc1ccc(C2(C(=O)N[C@@H]3C[C@@H]4C[C@](c5cccc(O)c5)(C3)[C@@H](C)CN4CCCc3ccccc3)CCCC2)cc1")
0.48
>>> measvalue("Cc1ccccc1/C=C/CN1C[C@H](C)[C@@]2(c3cccc(O)c3)C[C@H](NC(=O)C(C)(C)c3ccccc3)C[C@@H]1C2")
0.12
>>> measvalue("C[C@H]1CN(CCCc2ccccc2)[C@@H]2C[C@@H](NC(=O)C3(c4cccc5ccccc45)CCCC3)C[C@@]1(c1cccc(O)c1)C2")
16
>>> measvalue("C[C@H]1CN(CCCc2ccccc2)[C@@H]2C[C@@H](NC(=O)C3(c4ccccc4)CCCCC3)C[C@@]1(c1cccc(O)c1)C2")
0.68
>>> measvalue("C[C@H]1CN(CCCc2ccccc2)[C@@H]2C[C@@H](NC(=O)C3(c4ccccc4)CCCCCC3)C[C@@]1(c1cccc(O)c1)C2")
0.39
>>> measvalue("CCC(CC)(C(=O)N[C@@H]1C[C@@H]2C[C@](c3cccc(O)c3)(C1)[C@@H](C)CN2CCCc1ccccc1)c1ccccc1")
1.8
>>> measvalue("C[C@H]1CN(CCCc2ccccc2)[C@@H]2C[C@@H](NC(=O)C3(c4ccc(F)cc4)CCCC3)C[C@@]1(c1cccc(O)c1)C2")
0.45
>>> measvalue("C[C@H]1CN(CCCc2ccccc2)[C@@H]2C[C@@H](NC(=O)C3(c4ccccc4)CCC3)C[C@@]1(c1cccc(O)c1)C2")
0.42
